# Tested on: Candida albicans
# method_description: Minimal Inhibitory Concentration (MIC) assay, broth microdilution per CLSI;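 further: two read times 24 hr and 48 hr of incubation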
# Format: cell-based
# setup_conditions: Candida albicans; 48 hr reading (second value of cell 24 hr/48 hr); read-out: Minimum Inhibitory Concentrations against Yeast Isolates, Candida albicans
measured_quantity: MIC

INPUT: Consider the compound O=C(Cc1ccc(CCCCc2ccc(-c3ccccc3)cc2)cc1)NO and give its measured MIC.
OUTPUT: > 8 µg/mL

INPUT: Consider the compound shown here: O=C(Cc1ccc(CCCCc2ccc(NS(=O)(=O)CCN3CCOCC3)cc2)cc1)NO What is its recorded MIC?
OUTPUT: > 64 µg/mL

INPUT: Any idea what its MIC is? The compound is CC(=O)Nc1cccc(CCCCc2ccc(CC(=O)NO)cc2)c1
OUTPUT: > 32 µg/mL

INPUT: Which MIC value is on record for CC[C@H](C)C[C@H](C)CCCCCCCCC(=O)N[C@H]1C[C@@H](O)[C@@H](NCCN)NC(=O)[C@@H]2[C@@H](O)CCN2C(=O)[C@H]([C@H](O)CCN)NC(=O)[C@H]([C@H](O)[C@@H](O)c2ccc(O)cc2)NC(=O)[C@@H]2C[C@@H](O)CN2C(=O)[C@H]([C@@H](C)O)NC1=O [Caspofungin, reference compound] ?
OUTPUT: 0.06 µg/mL

INPUT: Requested field: MIC. Item: O=C(Cc1ccc(C(F)CCCc2ccccc2)cc1)NO (stereo not shown)
OUTPUT: 8 µg/mL

INPUT: What value of MIC has been reported for the following compound? O=C(Cc1ccc(CCCCc2ccc(NC(=O)CO)cc2)cc1)NO
OUTPUT: > 8 µg/mL

Consider the additional compound presented here.
INPUT: Any idea what its MIC is? The compound is CN1CCN(CCS(=O)(=O)Nc2ccc(CCCCc3ccc(CC(=O)NO)cc3)cc2)CC1
OUTPUT: > 64 µg/mL
